Data origin, for the record: patent US5081253A

test system: Rat Limb Bones (PTH induced bone resorption); test: Bone Resorption Assay: 45Ca Release from Rat Limb Bones (PTH Induced); format: cell-based, rat (Sprague-Dawley CD); details: Table II, 10 μg/mL
Measured parameter: Inhibition of Bone Resorption, PTH Induced

{"Smiles entry": "c1ccc(CCSc2nc3cnccc3[nH]2)cc1", "Test result": "Inactive"}
{"Smiles entry": "Fc1cccc(Cl)c1CSc1nc2cnccc2[nH]1", "Test result": "Inactive"}
{"Smiles entry": "CCOc1cccc(CSc2nc3cnccc3[nH]2)c1", "Test result": "Inactive"}
{"Smiles entry": "COc1cccc(CCSc2nc3cnccc3[nH]2)c1", "Test result": "Inactive"}
{"Smiles entry": "N#Cc1ccccc1CSc1nc2cnccc2[nH]1", "Test result": "Inactive"}
{"Smiles entry": "COc1ccccc1CSc1nc2cnccc2[nH]1", "Test result": "Active"}
{"Smiles entry": "Clc1cc2c(cc1CSc1nc3cnccc3[nH]1)OCO2", "Test result": "Active"}
{"Smiles entry": "Fc1ccccc1CSc1nc2cnccc2[nH]1", "Test result": "Active"}
{"Smiles entry": "COc1cccc(CSc2nc3cnccc3[nH]2)c1", "Test result": "Inactive"}
{"Smiles entry": "c1ccc(COc2cccc(CSc3nc4cnccc4[nH]3)c2)cc1", "Test result": "Active"}
{"Smiles entry": "Br.Br.Oc1cccc(CSc2nc3cnccc3[nH]2)c1", "Test result": "Inactive"}

---

tested on: Rat Limb Bones (PTH induced bone resorption); experiment: Bone Resorption Assay: 45Ca Release from Rat Limb Bones (PTH Induced); format: cell-based, rat (Sprague-Dawley CD); details: Table II, 10 μg/mL
Measured parameter: Inhibition of Bone Resorption, PTH Induced

{"Compound": "c1ccc(Oc2cccc(CSc3nc4cnccc4[nH]3)c2)cc1 [Example 46]", "Test result": "Inactive"}
{"Compound": "COc1ccc(CSc2nc3cnccc3[nH]2)cc1 [Example 26]", "Test result": "Active"}
{"Compound": "Fc1ccc(CSc2nc3cnccc3[nH]2)cc1F [Example 30]", "Test result": "Inactive"}
{"Compound": "Fc1cc(Br)ccc1CSc1nc2cnccc2[nH]1 [Example 20]", "Test result": "Active"}
{"Compound": "Fc1c(F)c(F)c(CSc2nc3cnccc3[nH]2)c(F)c1F [Example 32]", "Test result": "Inactive"}
